# System: BT-549
# cond: 72 h
Record form. Attribute: EC50, CellTiter-Blue viability. Fill in for each entry.
Value expressed in nM; do not type the unit.

Ask | Quick one: EC50, CellTiter-Blue viability of COCC[n+]1c2c(n(Cc3cnccn3)c1C)C(=O)c1ccccc1C2=O [YM155] ?
Reply | 50.8

Ask | Would you kindly repeat that for CC(C)C[C@@H](C(=O)N[C@H](C(=O)OC1CCCC1)c1ccccc1)[C@H](O)C(=O)NO [Tosedostat] ?
Reply | 273

Ask | Try Cc1[nH]c2ccccc2c1CCNCc1ccc(/C=C/C(=O)NO)cc1 [Panobinostat] next.
Reply | 125

Ask | Input COc1cc2/c(=N/c3ccc(Br)cc3F)nc[nH]c2cc1OCC1CCN(C)CC1 [Vandetanib]
Reply | 3750

Ask | Try O=C(Nc1ccncc1)C(=O)c1cn(Cc2ccc(Cl)cc2)c2ccccc12 [Indibulin] next.
Reply | 135

Hey, just so you know, these numbers are from the supplement of paper PMC4862054.
